Here, each record is paired with measured inhibition in vivo at 5 µmol/kg data.
- System: Rattus norvegicus
- Assay Procedure: In vivo inhibition angiotensin I induced pressor effect after po administration of 5 umol/kg in rats
- Assay type: functional
Your answer should be a number followed by the unit of measure.

Here's what some known entries look like.
Compound: NCCCC[C@H](OP(=O)(O)CCCCc1cccnc1)C(=O)N1CCC[C@H]1C(=O)O
Result: 56%
--
Compound: CC(=O)NCCC[C@H](OP(=O)(O)CCCCc1ccccc1)C(=O)N1CCC[C@H]1C(=O)O
Result: 4%
--
Compound: CCCCCC(C)P(=O)(O)O[C@@H](CCCCN)C(=O)N1CCC[C@H]1C(=O)O (stereo not given in full)
Result: 29%
--
Compound: CC(C)CCCP(=O)(O)O[C@@H](CCCCN)C(=O)N1CCC[C@H]1C(=O)O
Result: 69%

Q: Param readout= inhibition in vivo at 5 µmol/kg; system= Rattus norvegicus; entry= CCCCC(C)CP(=O)(O)O[C@@H](CCCCN)C(=O)N1CCC[C@H]1C(=O)O (stereo not given in full) ; returns value.
Result: 68%
